Source of measurements: the Immune Epitope Database (IEDB)

- System: HLA-B*46:01
- Method Notes: IEDB peptide-MHC binding, purified MHC/direct/fluorescence; filed as Kd, often an IC50 or EC50 that approximates it; bounds were set here for any values at or beyond the usual limits of such assays
- Test Conditions: source organism: Influenza A virus (A/chicken/Vietnam/393/2005(H5N1))
pKd: −log10 of the molar value.
Property Label: pKd

Please report the measured pKd for VLTGNLQTL ≤ 4.70

---

- System: HLA-B*07:02
- Method Notes: IEDB peptide-MHC binding, purified MHC/direct/fluorescence; filed as Kd, often an IC50 or EC50 that approximates it; bounds were set here for any values at or beyond the usual limits of such assays
- Test Conditions: source organism: Influenza A virus (A/duck/Hokkaido/1130/01(H1N1))
Property Label: Kd

Please give the documented Kd of ELRSRYWAI ≥ 20 µM

---

- System: HLA-A*01:01
- Method Notes: IEDB peptide-MHC binding, purified MHC/direct/fluorescence; filed as Kd, often an IC50 or EC50 that approximates it; bounds were set here for any values at or beyond the usual limits of such assays
- Test Conditions: source organism: Orthohantavirus andesense
pKd: −log10 of the molar value.
Property Label: pKd

Look up HLA-A*01:01 data: pKd of YLQAKSQVL , then report it. ≤ 4.70

---

- System: HLA-B*57:01
- Method Notes: IEDB peptide-MHC binding, purified MHC/direct/fluorescence; filed as Kd, often an IC50 or EC50 that approximates it; bounds were set here for any values at or beyond the usual limits of such assays
- Test Conditions: source organism: Campylobacter jejuni
Property Label: Kd

Look up Kd of SFWFFHPPY and report it. ≥ 20 µM

---

- System: HLA-A*02:06
- Method Notes: IEDB peptide-MHC binding, purified MHC/competitive/radioactivity; filed as Kd, often an IC50 or EC50 that approximates it; bounds were set here for any values at or beyond the usual limits of such assays
- Test Conditions: source organism: Lassa virus Josiah
Property Label: Kd
Write the numeric value and follow it with the unit.

For LISIFLHLV , write its Kd. 0.0804 µM

---

- System: HLA-B*08:01
- Method Notes: IEDB peptide-MHC binding, purified MHC/competitive/fluorescence; bounds were set here for any values at or beyond the usual limits of such assays
- Test Conditions: source organism: Vaccinia virus
Property Label: IC50

Name the recorded IC50 of the item INPIVKTSL in your answer. ≥ 88.4 µM

---

// reported pIC50 for each item listed
- System: HLA-A*03:01
- Method Notes: IEDB peptide-MHC binding, purified MHC/competitive/fluorescence; bounds were set here for any values at or beyond the usual limits of such assays
- Test Conditions: source organism: Zaire ebolavirus
As a rule, pIC50 stands for the negative log10 of the concentration, concentration in M.

Worked examples, 5 sequences total:
> print(dat)
   monomer.sequence  result
1         QTNAMVTLR    4.79
2         LQLPRDRFK    5.27
3         CAGDFAFHK    4.19
4         GSYGEYQSY    4.58
5         NTTGKLIWK    4.61

Alright, here's another sequence for you.
Look up and state reported pIC50 for KAALSSLAK 5.27

---

- System: HLA-B*58:01
- Method Notes: IEDB peptide-MHC binding, purified MHC/competitive/fluorescence; bounds were set here for any values at or beyond the usual limits of such assays
- Test Conditions: source organism: Monodelphis domestica
Property Label: IC50

Give a short answer stating reported IC50 for FLLPILSQIYT . ≥ 20 µM

---

- System: HLA-B*18:01
- Method Notes: IEDB peptide-MHC binding, purified MHC/competitive/radioactivity; filed as Kd, often an IC50 or EC50 that approximates it; bounds were set here for any values at or beyond the usual limits of such assays
- Test Conditions: source organism: Mammarenavirus choriomeningitidis
Property Label: Kd (µM)
Kindly answer with a numeric value in µM, unit omitted.

Query Kd for IETALRTLI 3.45

---

- System: HLA-A*02:06
- Method Notes: IEDB peptide-MHC binding, purified MHC/competitive/radioactivity; filed as Kd, often an IC50 or EC50 that approximates it; bounds were set here for any values at or beyond the usual limits of such assays
- Test Conditions: source organism: Dengue virus 2 Jamaica/1409/1983
Property Label: pKd
On this scale, pKd is minus log10 of a concentration expressed in M (mol/L).

> print(dat)
   monomer.sequence       system  property.label  result
1         SIILEFFLI  HLA-A*02:06             pKd    8.80
2        YLALLAAFKV  HLA-A*02:06             pKd    8.02

Turning now to a further sequence:
Look up and report measured pKd (HLA-A*02:06) for the following sequence: WMTTEDMLAV 7.60

---

- System: HLA-B*58:01
- Method Notes: IEDB peptide-MHC binding, purified MHC/direct/fluorescence; filed as Kd, often an IC50 or EC50 that approximates it; bounds were set here for any values at or beyond the usual limits of such assays
- Test Conditions: source organism: Bacillus cereus
Property Label: Kd (nM)
Give the value, in units of nM, as a plain number.

Item LGTIYGFIW : provide Kd 6.3

---

- System: HLA-A*03:01
- Method Notes: IEDB peptide-MHC binding, purified MHC/competitive/fluorescence; filed as Kd, often an IC50 or EC50 that approximates it; bounds were set here for any values at or beyond the usual limits of such assays
- Test Conditions: source organism: Escherichia coli O139:H28 str. E24377A
Property Label: Kd (nM)
Express your answer in nM, writing the number without its unit.

Fill in reported Kd for this entry: GINWKHPKR 1570

---

- System: HLA-A*03:01
- Method Notes: IEDB peptide-MHC binding, purified MHC/direct/fluorescence; filed as Kd, often an IC50 or EC50 that approximates it; bounds were set here for any values at or beyond the usual limits of such assays
- Test Conditions: source organism: West Nile virus
pKd: −log10 of the molar value.
Property Label: pKd

Print HLA-A*03:01 pKd for LYAVTTAVL . ≤ 4.70

---

- System: HLA-B*07:02
- Method Notes: IEDB peptide-MHC binding, purified MHC/competitive/radioactivity; filed as Kd, often an IC50 or EC50 that approximates it; bounds were set here for any values at or beyond the usual limits of such assays
- Test Conditions: source organism: Hepacivirus hominis
pKd: −log10 of the molar value.
Property Label: pKd

Answer with the recorded pKd for the sequence listed here: HSKRKCDEL ≤ 4.22

---

- System: HLA-B*18:01
- Method Notes: IEDB peptide-MHC binding, purified MHC/direct/fluorescence; filed as Kd, often an IC50 or EC50 that approximates it; bounds were set here for any values at or beyond the usual limits of such assays
- Test Conditions: source organism: Vibrio vulnificus CMCP6
pKd: −log10 of the molar value.
Property Label: pKd

Please give measured pKd of the following entry: MPIAAAIGT ≤ 4.70

---

- System: HLA-B*51:01
- Method Notes: IEDB peptide-MHC binding, purified MHC/direct/fluorescence; filed as Kd, often an IC50 or EC50 that approximates it; bounds were set here for any values at or beyond the usual limits of such assays
- Test Conditions: source organism: Giardia lamblia ATCC 50803
Property Label: Kd

> print(dat)
   monomer.sequence   result
1         EALAMCLPY  ≥ 20 µM
2         LLIQGLKTV  ≥ 20 µM

Now take the following sequence into account.
Give measured Kd for PPPPLQHPI (HLA-B*51:01). ≥ 5 µM

---

Kd overview
- System: HLA-A*02:01
- Method Notes: IEDB peptide-MHC binding, purified MHC/competitive/radioactivity; filed as Kd, often an IC50 or EC50 that approximates it; bounds were set here for any values at or beyond the usual limits of such assays
- Test Conditions: source organism: Dengue virus 4 Philippines/H241/1956
Give just the numeric value; nM need not be written.

Below: 2 sequences and their reported Kd.
> print(dat)
   monomer.sequence  units  result
1        FLMVLLIPEP     nM    31.4
2        TLIASLVMLL     nM    49.4

Could you now look at the following sequence, please?
Quick one: give measured Kd for VLWEGGHDL 14.3

---

- System: HLA-A*31:01
- Method Notes: IEDB peptide-MHC binding, purified MHC/competitive/radioactivity; filed as Kd, often an IC50 or EC50 that approximates it; bounds were set here for any values at or beyond the usual limits of such assays
- Test Conditions: source organism: Dengue virus 4 Philippines/H241/1956
sequences and their reported pKd
API: returns pKd as number; meaning -log10 of concentration in mol/L.

> print(dat)
   monomer.sequence  property.label  result
1        RIMQRGLFGK             pKd    7.96

Specify the recorded pKd for MLNILNGRKR , system: HLA-A*31:01. 7.76
